molecular target: Aurora B (Homo sapiens, UniProt Q96GD4); construct: Active Aurora B enzyme (recombinant residues 1-344); assay: Aurora B enzyme assay (time-resolved fluorescence, histone H3 peptide); settings: 1 mM ATP, 1 hour
Sequence (Q96GD4 whole entry, the tested form may be a part): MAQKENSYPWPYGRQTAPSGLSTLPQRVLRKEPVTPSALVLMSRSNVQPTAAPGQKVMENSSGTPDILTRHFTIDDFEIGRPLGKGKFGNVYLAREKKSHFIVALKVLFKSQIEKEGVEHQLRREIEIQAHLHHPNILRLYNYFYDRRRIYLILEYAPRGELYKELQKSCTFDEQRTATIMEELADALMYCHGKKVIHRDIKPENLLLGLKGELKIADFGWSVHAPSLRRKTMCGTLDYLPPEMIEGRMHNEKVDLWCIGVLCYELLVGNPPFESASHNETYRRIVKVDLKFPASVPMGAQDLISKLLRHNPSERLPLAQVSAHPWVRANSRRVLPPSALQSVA
Sequence (Q9NQS7 826-918 partner limits assumed): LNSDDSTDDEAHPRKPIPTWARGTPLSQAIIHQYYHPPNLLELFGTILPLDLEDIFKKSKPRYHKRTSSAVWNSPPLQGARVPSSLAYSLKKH
pIC50: −log10 of the molar value.
measured_quantity: pIC50

| substance_smiles | pIC50 |
| --- | --- |
| Cc1cccc(NC(=O)Nc2ccc(-c3ccc4c(-c5cnn[nH]5)n[nH]c4c3)cc2)c1 | 7.39 |
| CCCn1cc(-c2n[nH]c3cc(-c4ccc(NC(=O)Nc5cccc(F)c5)cc4)ccc23)cn1 | 7.06 |
| Cn1cc(-c2n[nH]c3cc(-c4ccc(CNC(=O)Nc5cccc(F)c5)cc4)ccc23)cn1 | 5.99 |

a = Cn1cc(-c2n[nH]c3cc(-c4ccc(NC(=O)Nc5ccc(OC(F)(F)F)cc5)cc4)ccc23)cn1
b = O=C(Nc1ccc(-c2ccc3c(-c4cnn(CCO)c4)n[nH]c3c2)cc1)Nc1cccc(F)c1
c = Cc1cccc(NC(=O)Nc2ccc(-c3ccc4c(-c5ccccc5)n[nH]c4c3)cc2)c1
d = Cn1cc(-c2n[nH]c3cc(-c4ccc(NC(=O)Nc5cccc(C(F)(F)F)c5)cc4)ccc23)cn1
Challenge: Rank entries according to their pIC50, from the largest number down. Please list the labels according to the requested order.
Response given: b, d, a, c

----------
molecular target: Aurora B (Homo sapiens, UniProt Q96GD4); construct: Active Aurora B enzyme (recombinant residues 1-344); experiment: Aurora B enzyme assay (time-resolved fluorescence, histone H3 peptide); settings: 1 mM ATP, 1 hour
pIC50: −log10 of the molar value.
measured_quantity: pIC50

Below, each entry is followed by its recorded pIC50 result.
| substance_smiles | subject_of_test | pIC50 |
| --- | --- | --- |
| O=C(Nc1ccc(-c2ccc3c(-c4cnn(C5CCNCC5)c4)n[nH]c3c2)cc1)Nc1cccc(F)c1 | Aurora B (Homo sapiens, UniProt Q96GD4) | 7.96 |
| O=C(Nc1ccc(-c2ccc3c(-c4ccn[nH]4)n[nH]c3c2)cc1)Nc1cccc(F)c1 | Aurora B (Homo sapiens, UniProt Q96GD4) | 7.63 |
| Cc1cccc(NC(=O)Nc2ccc(-c3ccc4c(-c5cscn5)n[nH]c4c3)cc2)c1 | Aurora B (Homo sapiens, UniProt Q96GD4) | 6.24 |
| Cn1cc(-c2n[nH]c3cc(-c4ccc(NC(=O)Nc5cccc(Cl)c5)cc4)ccc23)cn1 | Aurora B (Homo sapiens, UniProt Q96GD4) | 7.49 |

P = Cc1cccc(NC(=O)Nc2ccc(-c3ccc4c(-c5cccnc5)n[nH]c4c3)cc2)c1
Q = Cc1cccc(NC(=O)Nc2ccc(-c3ccc4c(-c5cnn(C)c5)n[nH]c4c3)cc2)c1
Challenge: Form: Entry with minimum pIC50 (choose one): P / Q // respond with label for picked entry
Response given: P
(P: 6.92, Q: 7.77)

1 = Cc1cccc(NC(=O)Nc2cccc(-c3ccc4c(-c5cnn(C)c5)n[nH]c4c3)c2)c1
2 = Cn1cc(-c2n[nH]c3cc(-c4ccc(NC(=O)Nc5ccccc5Cl)cc4)ccc23)cn1
3 = CC(C)(O)Cn1cc(-c2n[nH]c3cc(-c4ccc(NC(=O)Nc5cccc(F)c5)cc4)ccc23)cn1
Challenge: Reorder: pIC50, max to min. List each label, following the requested order.
Response given: 2, 3, 1
(2: 7.60, 3: 6.85, 1: 5.88)

1 = O=C(Nc1ccc(-c2ccc3c(-c4cnn[nH]4)n[nH]c3c2)cc1)Nc1cccc(F)c1
2 = Cn1cc(-c2n[nH]c3cc(-c4ccc(NC(=O)Nc5ccc(C(F)(F)F)cc5)cc4)ccc23)cn1
Challenge: Smaller pIC50 value? Options are 1 and 2 Lab log: write the label of the selected item as the result.
Response given: 2
(2: 6.97, 1: 7.23)

----------
biological target: KDR (Homo sapiens); assay: KDR HTRF in vitro kinase assay; assay type: biochemical; set-up: purified enzyme (His6-KDR 789-1354, MW 63 kD); settings: 1 mM ATP, 60 minutes
measured_quantity: IC50 (nM)

| substance_smiles | unit_symbol | IC50 |
| --- | --- | --- |
| Cn1cc(-c2n[nH]c3cc(-c4cccc(CNC(=O)Nc5cccc(F)c5)c4)ccc23)cn1 | nM | 137 |

a = O=C(Nc1ccc(-c2ccc3c(-c4cnn[nH]4)n[nH]c3c2)cc1)Nc1cccc(F)c1
b = O=C(Nc1ccc(-c2ccc3c(-c4ccn[nH]4)n[nH]c3c2)cc1)Nc1cccc(F)c1
c = Cc1cccc(NC(=O)Nc2ccc(-c3ccc4c(-c5cc6ccccc6[nH]5)n[nH]c4c3)cc2)c1
d = Cn1cc(-c2n[nH]c3cc(-c4ccc(NC(=O)Nc5cccc(OC(F)(F)F)c5)cc4)ccc23)cn1
Challenge: # ascending order, key=IC50 // respond by listing labels in the order requested
Response given: d, a, c, b

----------
molecular target: KDR (Homo sapiens, UniProt P35968); experiment: KDR HTRF in vitro kinase assay; type: biochemical; design: purified enzyme (His6-KDR 789-1354, MW 63 kD); settings: 1 mM ATP, 60 minutes
Sequence (P35968 789-1354): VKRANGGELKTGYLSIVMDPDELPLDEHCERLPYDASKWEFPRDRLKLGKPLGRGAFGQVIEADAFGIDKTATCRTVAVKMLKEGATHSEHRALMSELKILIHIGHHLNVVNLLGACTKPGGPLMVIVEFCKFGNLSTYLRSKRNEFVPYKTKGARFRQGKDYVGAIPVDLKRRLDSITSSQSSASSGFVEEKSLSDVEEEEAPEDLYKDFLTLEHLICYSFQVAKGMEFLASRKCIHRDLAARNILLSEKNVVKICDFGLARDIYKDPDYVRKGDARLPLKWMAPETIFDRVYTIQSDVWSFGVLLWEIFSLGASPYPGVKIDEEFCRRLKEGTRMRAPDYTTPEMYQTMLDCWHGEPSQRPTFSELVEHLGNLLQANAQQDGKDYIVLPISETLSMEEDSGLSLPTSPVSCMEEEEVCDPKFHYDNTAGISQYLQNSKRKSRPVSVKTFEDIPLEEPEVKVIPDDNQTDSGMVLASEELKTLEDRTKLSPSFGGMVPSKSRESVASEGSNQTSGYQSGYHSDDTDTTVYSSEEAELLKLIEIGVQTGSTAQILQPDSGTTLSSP
measured_quantity: IC50 (µM)

I = Cc1cccc(NC(=O)Nc2cccc(-c3ccc4c(-c5cnn(C)c5)n[nH]c4c3)c2)c1
II = Cc1cccc(NC(=O)Nc2ccc(-c3ccc4c(-c5cnn(C)c5)n[nH]c4c3)cc2)c1
Challenge: Which record would sort first by descending IC50, I or II ? # respond with the chosen item's label
Response given: I

P = Cn1cc(-c2n[nH]c3cc(-c4ccc(NC(=O)Nc5ccc(OC(F)(F)F)cc5)cc4)ccc23)cn1
Q = CC(C)(O)Cn1cc(-c2n[nH]c3cc(-c4ccc(NC(=O)Nc5cccc(F)c5)cc4)ccc23)cn1
R = Cn1cc(-c2n[nH]c3cc(-c4ccc(NC(=O)Nc5ccccc5Cl)cc4)ccc23)cn1
Challenge: I would appreciate it if you could sort these 3 compounds by IC50, starting from the smallest number. State the ranking by listing the labels in the requested order.
Response given: P, R, Q

----------
target: Aurora B (Homo sapiens); construct: Active Aurora B enzyme (recombinant residues 1-344); experiment: Aurora B enzyme assay (time-resolved fluorescence, histone H3 peptide); details: 1 mM ATP, 1 hour
pIC50: −log10 of the molar value.
measured_quantity: pIC50

Here is how some compounds turned out for pIC50.
| substance_smiles | pIC50 |
| --- | --- |
| Cn1cc(-c2n[nH]c3cc(-c4cccc(CNC(=O)Nc5cccc(F)c5)c4)ccc23)cn1 | 7.60 |
| Cc1cccc(NC(=O)Nc2ccc(-c3ccc4c(-c5cnn(CCN6CCOCC6)c5)n[nH]c4c3)cc2)c1 | 6.71 |
| O=C(Nc1ccc(-c2ccc3c(-c4cn[nH]c4)n[nH]c3c2)cc1)Nc1cccc(F)c1 | 7.49 |

A = Cc1cccc(NC(=O)Nc2ccc(-c3ccc4c(-c5cnn(CCO)c5)n[nH]c4c3)cc2)c1
B = O=C(Nc1ccc(-c2ccc3c(-c4cnn(CCN5CCOCC5)c4)n[nH]c3c2)cc1)Nc1cccc(F)c1
Challenge: Of A and B , which carries the smaller reported pIC50 figure? When you have decided, please share the label of that item.
Response given: A
(A: 7.36, B: 7.67)

----------
molecular target: KDR (Homo sapiens, UniProt P35968); assay: KDR HTRF in vitro kinase assay; assay type: biochemical; design: purified enzyme (His6-KDR 789-1354, MW 63 kD); settings: 1 mM ATP, 60 minutes
measured_quantity: IC50 (nM)

| substance_smiles | unit_symbol | data_value |
| --- | --- | --- |
| Cc1cccc(NC(=O)Nc2ccc(-c3ccc4c(-c5ccsc5)n[nH]c4c3)cc2)c1 | nM | 12300 |
| O=C(Nc1ccc(-c2ccc3c(-c4cnn(CCN5CCOCC5)c4)n[nH]c3c2)cc1)Nc1cccc(F)c1 | nM | 86.1 |
| Cn1cc(-c2n[nH]c3cc(-c4ccc(NC(=O)Nc5ccc(C(F)(F)F)cc5)cc4)ccc23)cn1 | nM | 45.1 |
| O=C(Nc1ccc(-c2ccc3c(-c4cn[nH]c4)n[nH]c3c2)cc1)Nc1cccc(F)c1 | nM | 76.3 |

1 = Cn1cc(-c2n[nH]c3cc(-c4ccc(NC(=O)Nc5ccccc5OC(F)(F)F)cc4)ccc23)cn1
2 = Cc1cc(NC(=O)Nc2ccc(-c3ccc4c(-c5cnn(C)c5)n[nH]c4c3)cc2)no1
3 = Cn1cc(-c2n[nH]c3cc(-c4ccc(NC(=O)Nc5ccccc5C(F)(F)F)cc4)ccc23)cn1
Challenge: Put the items in order so that reported IC50 rises from first to last. # answer = labels listed in requested order
Response given: 2, 1, 3

a = Cn1cc(-c2n[nH]c3cc(-c4ccc(NC(=O)Nc5cccc(C(F)(F)F)c5)cc4)ccc23)cn1
b = Cc1cccc(NC(=O)Nc2ccc(-c3ccc4c(-c5cccnc5)n[nH]c4c3)cc2)c1
c = Cc1cccc(NC(=O)Nc2ccc(-c3ccc4c(-c5ccccc5)n[nH]c4c3)cc2)c1
Challenge: Hi! Can you put these in order of IC50, lowest number first? // ordering of labels required in reply
Response given: a, b, c
(a: 23.7 nM, b: 584 nM, c: 3610 nM)
